Assay: FIG. 10B
Conditions: female, Balb/c, mouse, blood, iv
measure: MRT (h)
Write the number in h without appending the unit.

# compound CC[C@H](C)[C@@H]1NC(=O)[C@@](C)(NC(=O)[C@H](CCCNC(=N)N)NC(=O)[C@H](CC(C)C)NC(=O)[C@@H](NC(=O)[C@H](CCC(N)=O)NC(=O)[C@H](CC(C)C)NC(C)=O)[C@@H](C)O)CCCC=CCCC[C@@](C)(C(=O)N[C@@H](CC(C)C)C(=O)N[C@@H](Cc2ccc3ccccc3c2)C(N)=O)NC(=O)[C@H](CCCNC(=N)N)NC(=O)[C@H](CCC(N)=O)NC1=O (single isomer, unassigned) ; its MRT = 1.88

* * *

Assay: Toxicokinetics, 14 days i.p., female balb/c mice
Settings: female, balb/c, mouse, plasma, ip, 20 mg/kg
measure: half-life (h)
# output: bare number, implied unit h

Entry under test: CC[C@H](C)[C@@H]1NC(=O)[C@@](C)(NC(=O)[C@H](CCCNC(=N)N)NC(=O)[C@H](CC(C)C)NC(=O)[C@@H](NC(=O)[C@H](CCC(N)=O)NC(=O)[C@H](CC(C)C)NC(C)=O)[C@@H](C)O)CCCC=CCCC[C@@](C)(C(=O)N[C@@H](CC(C)C)C(=O)N[C@@H](Cc2ccc3ccccc3c2)C(N)=O)NC(=O)[C@H](CCCNC(=N)N)NC(=O)[C@H](CCC(N)=O)NC1=O [WX-024, LQTLRXaa1IQRXaa2L] . Its half-life was 4.55

* * *

Experiment: in vivo
Details: female, balb/c, mouse, ip, 20 mg/kg
measure: AUC(0-inf) (µg·h/mL)
The figure you give is taken to be in µg·h/mL; do not add the unit.

The recorded AUC(0-inf) for CC[C@H](C)[C@@H]1NC(=O)[C@@](C)(NC(=O)[C@H](CCCNC(=N)N)NC(=O)[C@H](CC(C)C)NC(=O)[C@@H](NC(=O)[C@H](CCC(N)=O)NC(=O)[C@H](CC(C)C)NC(C)=O)[C@@H](C)O)CCCC=CCCC[C@@](C)(C(=O)N[C@@H](CC(C)C)C(=O)N[C@@H](Cc2ccc3ccccc3c2)C(N)=O)NC(=O)[C@H](CCCNC(=N)N)NC(=O)[C@H](CCC(N)=O)NC1=O [WX-024, LQTLRXaa1IQRXaa2L] is 161

* * *

Test: in vivo
Conditions: female, balb/c, mouse, ip, 15 mg/kg
measure: AUC(0-inf)

Per the records, this compound ( CC[C@H](C)[C@@H]1NC(=O)[C@@](C)(NC(=O)[C@H](CCCNC(=N)N)NC(=O)[C@H](CC(C)C)NC(=O)[C@@H](NC(=O)[C@H](CCC(N)=O)NC(=O)[C@H](CC(C)C)NC(C)=O)[C@@H](C)O)CCCC=CCCC[C@@](C)(C(=O)N[C@@H](CC(C)C)C(=O)N[C@@H](Cc2ccc3ccccc3c2)C(N)=O)NC(=O)[C@H](CCCNC(=N)N)NC(=O)[C@H](CCC(N)=O)NC1=O [WX-024, LQTLRXaa1IQRXaa2L] ) has AUC(0-inf) equal to 109 µg·h/mL
